- Test Target: human CLDN18.2 (human)
- Assay Summary: cell-based or functional assay
Assay Metric: ADCC EC50, HEK293T-hCLDN18.2 target cells, human PBMC effectors (µg/mL)
Value expressed in µg/mL; do not type the unit.

Any idea what its ADCC EC50, HEK293T-hCLDN18.2 target cells, human PBMC effectors is? The binder is 175D10 (antibody, human IgG1, kappa, V domains shown) VH: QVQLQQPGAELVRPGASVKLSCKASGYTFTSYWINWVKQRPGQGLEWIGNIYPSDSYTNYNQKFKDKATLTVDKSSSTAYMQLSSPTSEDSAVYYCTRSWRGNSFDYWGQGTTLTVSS VL: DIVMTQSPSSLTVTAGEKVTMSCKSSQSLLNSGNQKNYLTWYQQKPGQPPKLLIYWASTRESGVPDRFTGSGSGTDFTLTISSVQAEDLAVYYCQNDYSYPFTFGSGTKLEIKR
0.058

---
ADCC EC50, HEK293T-hCLDN18.2 target cells, human PBMC effectors lookup needed for 27B5-chIgG1 (antibody, V domains shown, human-mouse chimeric antibody, human IgG1/kappa constant regions) VH: QVQLQQPGTELVKPGASVKLSCKASGYTFTSYWMHWVKQRPGQGLEWIGNIHPSNGGSNHNEKFKSKATLTVDKSSSTAYMQLSSLTSEDSAVYYCAPIYYGNSLAYWGHGTLVTVSA VL: DVVMTQSPSSLTVTAGEKVTMSCKSSQSLLNSGNQKNYLTWYQQKPGQPPKLLLYWASTRESGVPDRFTGSGSGTDFTLTISSVQAEDLAVYYCQNSYFYPFTFGSGTKLEIKR , thanks.
0.0249

// repeat for 9F3-chIgG1 (antibody, V domains shown, human-mouse chimeric antibody, human IgG1/kappa constant regions) VH: EVRLQQSGPELVKPGASVKIPCKASGYKFTDYNMDWVKQSHGKSLEWIGEINPNNGGTIYNQKFKGKATLTVDKSSSTAYMELRSLTSEDTAVYYCARIYYGNSFAYWGQGTLVTVSS VL: DIVMTQSPSSLTVTAGEKVTMSCKSSQSLLNSGNLKNYLTWYQQKPGQPPKLLIYWASTRESGVPDRFTGSGSGTDFTLTISSVQAEDLAVYYCQNDYFYPLTFGAGTKLEIKR and report
0.008
